Taken from PubChem BioAssay AID651965.

- MEASURED_ON: ATP-dependent Clp protease proteolytic subunit (Bacillus subtilis (strain 168)) (UniProt P80244)
- Sequence (P80244 whole entry, looked up): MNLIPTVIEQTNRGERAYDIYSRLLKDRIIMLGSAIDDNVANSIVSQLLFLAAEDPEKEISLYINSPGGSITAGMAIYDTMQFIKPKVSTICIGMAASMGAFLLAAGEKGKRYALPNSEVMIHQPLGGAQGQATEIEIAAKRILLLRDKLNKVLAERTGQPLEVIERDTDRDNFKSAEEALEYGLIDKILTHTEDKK
- ASSAY_COMMENT: qHTS Assay for Activators of ClpP; also: potency is read from the fitted curve at half-maximal effect
- EXPERIMENTAL_CONDITIONS: purified B. subtilis ClpP, FRET peptide cleavage, 20 min; series mostly up to 57.5 µM
About 6,400 (1.9%) of roughly 340,000 compounds were called active. Inconclusive results (about 4%) are left out. This excerpt belongs to a sample that is enriched for actives.

{"columns": ["MOLECULE", "Potency"],
 "data": [
  ["CCc1nc2c(OCc3cccc(OC)c3)cccn2c1N(C)C(=O)C(C)C", "inactive"],
  ["C/C(CC(=O)Nc1ccc(N(C)C)cc1)=N\\NC(=O)c1ccccc1F", "inactive"],
  ["CCOC(=O)c1ccc(-n2c(CCC(=O)O)ccc2-c2ccccc2)cc1", "inactive"],
  ["Cc1ccc(S(=O)(=O)N2CCC(=O)N([C@H](COCc3ccccc3)C(C)C)CC2)cc1", "inactive"],
  ["COc1ccc(C(=O)NNS(=O)(=O)c2ccc(C)cc2)cc1", "inactive"],
  ["CCOC(=O)C1(C)CCCN(C(=O)c2cccc(Cl)c2)C1 (centres undefined)", "inactive"],
  ["COc1ccc(OC)c(NC(=O)C2(C)CCN2C(=O)Cc2ccccc2)c1 (centres undefined)", "inactive"],
  ["COCCNc1nc(-c2ccccc2)nc2c1oc1ccccc12", "inactive"],
  ["Cc1ccc(S(=O)(=O)NNC(=O)Nc2cccc3ccccc23)cc1", "14.1 µM (active)"]
]}

----------
- MEASURED_ON: ATP-dependent Clp protease proteolytic subunit (Bacillus subtilis (strain 168))
- ASSAY_COMMENT: qHTS Assay for Activators of ClpP; also: the source files actives as falling curves though it sought activators and does not explain the sign; nearly all actives have a fitted effect of over 65% in size
- EXPERIMENTAL_CONDITIONS: purified B. subtilis ClpP, FRET peptide cleavage, 20 min; series mostly up to 57.5 µM
The whole screen tested about 340,000 compounds, of which about 6,400 (1.9%) were called active. Roughly 4% stayed inconclusive and do not appear here. Calls follow the shape of the dose curve; as a rule, active = well fitted falling curve with a large enough effect; inconclusive = small, poorly fitted or top-dose-only effect; inactive = no such curve, though single readings can be large or run the other way. What follows is part of a selection rich in actives, with near analogues and random picks from the rest.
Outcome codes: active, inactive

{"columns": ["MOLECULE", "CAT"],
 "data": [
  ["CCc1cc(Br)ccc1NC(=O)C1CCCO1 (centres undefined)", "inactive"],
  ["O=Cc1c(NCCCN2CCCC2=O)c2ccccc2[nH]c1=O", "inactive"],
  ["N#CCCN(C(=O)COC(=O)c1ccc(S(=O)(=O)N2CCCCCC2)cc1)c1ccccc1", "inactive"],
  ["Clc1ccc(Cc2nnc(-c3cccs3)o2)cc1", "inactive"],
  ["COc1cccc(C(=O)c2cc3ccc(O)cc3oc2=O)c1", "inactive"],
  ["NC(c1csc(NC(=O)Nc2cccc(C(F)(F)F)c2)n1)C1CCCCC1 (centres undefined)", "inactive"],
  ["CCCc1nc2c3ccccc3ccn2c1Cc1ccccc1C(F)(F)F", "inactive"],
  ["C[N+](C)(C)CCNC(=O)c1c[nH]c2ccccc12", "inactive"],
  ["Cc1ccc(Cc2c(-c3ccc(C)cc3)nc3c4ccccc4ccn23)cc1", "inactive"],
  ["CCc1ccc(C(=O)COC(=O)c2ccco2)cc1", "inactive"],
  ["O=C(COC(=O)CNC(=O)c1ccco1)Nc1ccc(F)cc1", "active"],
  ["COc1ccc(C(C(=O)Nc2c(C)cccc2C)N2CCN(c3ccc(C)cc3)CC2)cc1 (centres undefined)", "inactive"],
  ["Cc1ccc(CSc2nc3cccnc3n2Cc2ccc(C(=O)NC3CC3)cc2)cc1", "inactive"],
  ["COC(=O)c1cc(OC)c(OC)cc1NC(=O)C1CCCO1 (centres undefined)", "active"],
  ["CC(C)(O)C1=C[N+](=O)CC=C1", "inactive"],
  ["FC(F)(F)c1ccccc1Cc1c(-c2ccccc2)nc2c3ccccc3ccn12", "active"],
  ["CCn1c2ccccc2c2cc(NC(=O)COC(=O)c3cc(S(=O)(=O)N4CCCCC4)ccc3Cl)ccc21", "active"],
  ["COc1nc(-c2ccc(Cl)cc2)ccc1-c1noc(-c2cccs2)n1", "active"],
  ["C=CCNC(=O)CSc1nc2sc(C)c(C)c2c(=O)[nH]1", "inactive"]
]}

----------
- MEASURED_ON: ATP-dependent Clp protease proteolytic subunit (Bacillus subtilis (strain 168))
- ASSAY_COMMENT: qHTS Assay for Activators of ClpP; also: the source files actives as falling curves though it sought activators and does not explain the sign; nearly all actives have a fitted effect of over 65% in size
- EXPERIMENTAL_CONDITIONS: purified B. subtilis ClpP, FRET peptide cleavage, 20 min; series mostly up to 57.5 µM
- From the text: The Clp protease proteolytic subunit (ClpP) is the core unit of the Clp complex belonging to the peptidase family S14 that hydrolyzes protein into small peptides in the presence of ATP and magnesium. It is ubiquitously expressed and is the major protease in bacteria. […] Unlike common antibiotics that simply interfere with the essential enzyme activity, ADEP binding activates the ClpP core in the absence of the regulatory Clp-ATPases leading to uncontrolled proteolysis and eventually cell death. […]
Among all 340,000 compounds or so, about 6,400 (1.9%) were called active. Not shown: some 4% with an inconclusive outcome. Calls come from the whole dose curve; as a rule, active = well fitted falling curve with a large enough effect; inconclusive = small, poorly fitted or top-dose-only effect; inactive = no such curve, though single readings can be large or run the other way. For the sample, actives were picked, then their nearest neighbours and some compounds at random.
Outcome codes: active, inactive

{"columns": ["COMPOUND", "CAT"],
 "data": [
  ["CC(C)(C)OC(=O)N(Cc1ccccc1)Cc1ccc(OCc2cccc(NC(=O)c3ccccc3)c2)cc1", "inactive"],
  ["CC(=O)C[C@@H]1OC[C@H](CO)N1S(=O)(=O)c1ccc(C)cc1", "inactive"],
  ["COc1ccccc1Nc1cc(C(=O)NCCCN(C)C2CCCCC2)c2ccccc2n1", "inactive"],
  ["COc1cc(C(O)c2nc(-c3cccc(C(=O)O)c3)cs2)ccc1F (centres undefined)", "inactive"],
  ["CCOC(=O)NN1C(=O)c2ccccc2NC1c1cccc(O)c1 (centres undefined)", "active"],
  ["COc1ccc(C(=O)Nc2c(Cl)cc(Cl)cc2C(=O)N2CCC(C)CC2)cc1", "active"],
  ["Cc1ccc(S(=O)(=O)N[C@H]2CCC[C@@H]2O)cc1", "inactive"],
  ["CCc1ccc(Oc2coc3cc(OC(=O)c4cc5ccccc5oc4=O)ccc3c2=O)cc1", "inactive"],
  ["COc1ccccc1CNc1nc(Nc2ccccc2Cl)c2sccc2n1", "inactive"],
  ["CCc1cc(C(N)=O)c(NC(=O)c2ccc(OC)cc2)s1", "inactive"],
  ["COC(=O)[C@]12CCCCC=C1N(CCC1=CCCCC1)C(=O)[C@H](CC(=O)N1CCSCC1)C2", "inactive"],
  ["COc1ccc(C(=O)N2CCC(C(=O)Nc3ccc(C)cc3)CC2)cc1", "inactive"],
  ["OC(CBr)C[n+]1cccc2cc(Br)ccc21 (centres undefined)", "inactive"],
  ["CCOC(=O)c1cc2cc3ccccc3cc2oc1=O", "inactive"]
]}

----------
- MEASURED_ON: ATP-dependent Clp protease proteolytic subunit (Bacillus subtilis (strain 168))
- ASSAY_COMMENT: qHTS Assay for Activators of ClpP; also: the source files actives as falling curves though it sought activators and does not explain the sign; nearly all actives have a fitted effect of over 65% in size
- EXPERIMENTAL_CONDITIONS: purified B. subtilis ClpP, FRET peptide cleavage, 20 min; series mostly up to 57.5 µM
Among all 340,000 compounds or so, about 6,400 (1.9%) were called active. Not shown: some 4% with an inconclusive outcome. Calls follow the shape of the dose curve; as a rule, active = well fitted falling curve with a large enough effect; inconclusive = small, poorly fitted or top-dose-only effect; inactive = no such curve, though single readings can be large or run the other way. For the sample, actives were picked, then their nearest neighbours and some compounds at random.
Possible outcomes: active, inactive

{"columns": ["MOLECULE", "CAT"],
 "data": [
  ["CCCOc1ccc(F)cc1-c1cc(C(=O)Nc2ccc(F)c(Cl)c2)[nH]n1", "inactive"],
  ["CN1OC[C@@H]2CN[C@H](c3ccc(-c4ccccc4)cc3)C[C@@H]21", "inactive"],
  ["CC(=O)Nc1ccc(S(=O)(=O)N2CCN(c3ccccc3)CC2)cc1", "inactive"],
  ["COc1cc2c(cc1NC(=O)CN1CCN(S(=O)(=O)c3ccc(F)cc3)CC1)oc1ccccc12", "active"],
  ["CCCNC(=O)c1cc(C2CCCN(C(=O)c3ccc4c(c3)CCO4)C2)on1 (stereo not drawn)", "inactive"],
  ["CC1(C(=O)NS(=O)(=O)c2ccccc2)CCN1C(=O)c1ccccc1 (stereo not drawn)", "inactive"],
  ["COc1ccc(/C=N/NC(=O)CNC(=O)c2ccc(S(=O)(=O)N3CCCC3)cc2)c(OC)c1", "inactive"],
  ["COc1cc(C(O)c2nc(-c3cnn(C)c3)cs2)ccc1F (stereo not drawn)", "inactive"]
]}

----------
- MEASURED_ON: ATP-dependent Clp protease proteolytic subunit (Bacillus subtilis (strain 168)) (UniProt P80244)
- ASSAY_COMMENT: qHTS Assay for Activators of ClpP; also: the source files actives as falling curves though it sought activators and does not explain the sign; nearly all actives have a fitted effect of over 65% in size
- EXPERIMENTAL_CONDITIONS: purified B. subtilis ClpP, FRET peptide cleavage, 20 min; series mostly up to 57.5 µM
About 6,400 (1.9%) of roughly 340,000 compounds were called active. About 4% were inconclusive and are not listed. The call rests on the fitted dose curve; in most records, active means well fitted falling curve with a large enough effect; inconclusive means small, poorly fitted or top-dose-only effect; inactive means no such curve, though single readings can be large or run the other way. Only a selection was taken, and actives are over-represented in it overall.
Labels: 1 (yes) = active, 0 (no) = inactive

{"columns": ["COMPOUND", "CAT"],
 "data": [
  ["Cc1ccc(S(=O)(=O)N2CCC(C)CC2)cc1C(=O)NCc1ccccn1", "0 (no)"],
  ["CC(C)(C)c1nc2ccccc2c(=O)n1N1C(=O)c2ccccc2C1=O", "0 (no)"],
  ["C=CCc1c(C)nc2cc(-c3ccccc3)[nH]n2c1=O", "0 (no)"],
  ["CCc1c(C)nc2cc(C)[nH]n2c1=O", "1 (yes)"],
  ["COc1ccc(-c2ccc(CN3C(CC(C)C)C(=O)N(Cc4cn(CC5CCCCC5)nn4)CCS3(=O)=O)cc2)cn1 (stereo not drawn)", "0 (no)"],
  ["CN1CCN(S(=O)(=O)c2ccc(N3CCN(c4ccccc4O)CC3)c([N+](=O)[O-])c2)CC1", "0 (no)"],
  ["COc1ccccc1C(=O)Nc1ccc(NC(=O)c2ccco2)c(C)c1", "0 (no)"],
  ["COc1cncc(-c2cnc3sc(NCCc4ccccn4)nn23)c1", "0 (no)"],
  ["CCOC(=O)c1c(C)c(C(=O)NCCc2ccc(S(N)(=O)=O)cc2)c(C)n1CC", "0 (no)"],
  ["Cc1nn(CC(=O)N2CCN(c3cccc(C(F)(F)F)c3)CC2)c(=O)c2cc3sccc3n12", "0 (no)"],
  ["O=C(NCCCO)/C(=C\\C=C\\c1ccccc1)NC(=O)c1ccccc1Cl", "1 (yes)"],
  ["CCCSc1nc(NCc2ccco2)c2c3c(sc2n1)COC(C)(CC)C3 (stereo not drawn)", "0 (no)"],
  ["CCCCc1c(-c2ccc(Br)cc2)ncn1CCc1ccccc1OC", "0 (no)"],
  ["O=[N+]([O-])c1cccc2ncccc12", "0 (no)"],
  ["O=C(Nc1ccc(NC(=O)c2cccs2)cn1)c1ccco1", "0 (no)"],
  ["COc1cccc(C(=O)Nc2ccc(NC(=O)c3ccco3)cn2)c1", "1 (yes)"],
  ["CCc1c(C)nc2cc(-c3cccs3)[nH]n2c1=O", "1 (yes)"],
  ["O=C(Nc1ccccc1)N1CCN(C2c3ccccc3-c3ccccc32)CC1", "1 (yes)"],
  ["Cc1ccc(C(=O)COc2cccc(NC(=O)c3ccco3)c2)cc1", "1 (yes)"],
  ["CNC(=O)/C(=C\\C=C\\c1ccccc1)NC(=O)c1ccc([N+](=O)[O-])cc1", "0 (no)"],
  ["COC(=O)Cn1c2ccc(C)cc2c2nc(C)sc21", "0 (no)"],
  ["COc1ccc2oc(=O)c(C(=O)O)cc2c1", "1 (yes)"],
  ["COCCNc1nc(Nc2ccccc2Cl)c2sc(-c3ccccc3)cc2n1", "0 (no)"],
  ["N=c1oc2ccccc2cc1C(=O)NCc1ccccc1", "0 (no)"],
  ["Cc1cc(C)cc(C(=O)NCCN2CCOCC2)c1", "0 (no)"],
  ["Cc1ccc(-c2nc(SCc3ccc(Br)cc3)n3[nH]c(=O)cc3n2)cc1", "0 (no)"],
  ["c1cc(-c2ccc3[nH]ccc3c2)n2ccnc2c1", "0 (no)"],
  ["Cn1c(=O)n(Cc2ccco2)c(=N)c2c3c(sc21)CCCC3", "0 (no)"],
  ["CCc1ccccc1OCCSc1nc(-c2cccs2)nc2cc(=O)[nH]n12", "0 (no)"],
  ["CCCc1c(-c2ccccc2F)ncn1Cc1ccccc1OC", "0 (no)"],
  ["Cc1nc2ccn(Cc3cccnc3)c(=O)c2cc1C(=O)N1CCN(c2ccccc2F)CC1", "1 (yes)"],
  ["CC(C)n1c(-c2cccs2)nc2ccccc21", "1 (yes)"],
  ["CC[C@@H]1CC2=C(C(=O)OC(C)(C)O2)[C@@H](CC)O1", "0 (no)"],
  ["O=C(Nc1ccccc1)N1CCC(C(=O)N2CCN(Cc3ccccc3)CC2)CC1", "0 (no)"],
  ["C=C1C=C(C(F)F)n2ncc(C(=O)NCCc3ccccc3OC)c2N1", "0 (no)"],
  ["NC(=O)Nc1ccc(/C=C/c2ccnc3ccccc23)cc1", "0 (no)"],
  ["O=C(C[n+]1ccncc1)c1ccc2c(c1)CCCC2", "0 (no)"],
  ["Cc1ccccc1CN1CCN(CC(=O)NCc2ccccn2)C1=O", "0 (no)"]
]}
